Data credit: ChEMBL document CHEMBL2311285

biological target: Induced myeloid leukemia cell differentiation protein Mcl-1 (Homo sapiens); experiment: Binding affinity to cMcl-1 (residues 171 to 327) (unknown origin) by biotin-Bim displacement based ELISA
Sequence (Q07820 whole entry, the tested form may be a part): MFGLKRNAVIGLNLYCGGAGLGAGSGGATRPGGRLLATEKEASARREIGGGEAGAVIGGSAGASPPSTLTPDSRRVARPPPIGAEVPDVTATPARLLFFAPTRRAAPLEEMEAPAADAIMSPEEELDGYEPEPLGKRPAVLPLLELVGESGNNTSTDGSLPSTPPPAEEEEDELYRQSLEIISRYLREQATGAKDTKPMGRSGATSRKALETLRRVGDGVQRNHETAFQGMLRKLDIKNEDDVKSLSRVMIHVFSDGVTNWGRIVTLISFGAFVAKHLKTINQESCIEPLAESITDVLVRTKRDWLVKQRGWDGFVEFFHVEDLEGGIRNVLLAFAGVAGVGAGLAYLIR
Class (by IC50) -- bottom bin = under 40 nM, middle bin = from 40 nM up to 100 nM, top bin = 100 nM and over

chemical_smiles | target_system | class_label
O=C1N=C2C(=C1NCCCc1ccccc1)c1ccc(N3CCSCC3)c3cccc2c13 | Induced myeloid leukemia cell differentiation protein Mcl-1 (Homo sapiens) | bottom bin
Nc1ccc(Sc2ccc3c4c(cccc24)C2=NC(=O)C(NCCCc4ccccc4)=C23)cc1 | Induced myeloid leukemia cell differentiation protein Mcl-1 (Homo sapiens) | bottom bin
CCCCCCNC1=C2C(=NC1=O)c1cccc3c(N4CCSCC4)ccc2c13 | Induced myeloid leukemia cell differentiation protein Mcl-1 (Homo sapiens) | bottom bin
CCCCNC1=C2C(=NC1=O)c1cccc3c(Oc4ccc(C(C)C)cc4)ccc2c13 | Induced myeloid leukemia cell differentiation protein Mcl-1 (Homo sapiens) | top bin
CCCCNC1=C2C(=NC1=O)c1cccc3c(Sc4ccc(N)cc4)ccc2c13 | Induced myeloid leukemia cell differentiation protein Mcl-1 (Homo sapiens) | middle bin
CC(C)NC1=C2C(=NC1=O)c1cccc3c(N4CCSCC4)ccc2c13 | Induced myeloid leukemia cell differentiation protein Mcl-1 (Homo sapiens) | top bin
O=C1N=C2C(=C1NCCCc1ccccc1)c1ccc(Sc3ccc(OO)cc3)c3cccc2c13 | Induced myeloid leukemia cell differentiation protein Mcl-1 (Homo sapiens) | middle bin
CCCCCCNC1=C2C(=NC1=O)c1cccc3c(Sc4ccc(N)cc4)ccc2c13 | Induced myeloid leukemia cell differentiation protein Mcl-1 (Homo sapiens) | bottom bin
CCCCNC1=C2C(=NC1=O)c1cccc3c(N4CCSCC4)ccc2c13 | Induced myeloid leukemia cell differentiation protein Mcl-1 (Homo sapiens) | middle bin
CC(C)c1ccc(Oc2ccc3c4c(cccc24)C2=NC(=O)C(C#N)=C23)cc1 | Induced myeloid leukemia cell differentiation protein Mcl-1 (Homo sapiens) | top bin
CCCCNC1=C2C(=NC1=O)c1cccc3c(Sc4ccc(OC)cc4)ccc2c13 | Induced myeloid leukemia cell differentiation protein Mcl-1 (Homo sapiens) | top bin
